MEASUREMENT TARGET: FADS1 (Mus musculus, UniProt Q920L1)
Construct: Liver from ^13C5-DGLA dosed DIO mice was collected for pharmacodynamic (PD) analysis; from tissue; host or cells: living DIO C57Bl/6 mice; 13C5-DGLA to 13C5-AA conversion read in liver (A4) or blood plasma (A5)
Sequence (Q920L1 whole entry): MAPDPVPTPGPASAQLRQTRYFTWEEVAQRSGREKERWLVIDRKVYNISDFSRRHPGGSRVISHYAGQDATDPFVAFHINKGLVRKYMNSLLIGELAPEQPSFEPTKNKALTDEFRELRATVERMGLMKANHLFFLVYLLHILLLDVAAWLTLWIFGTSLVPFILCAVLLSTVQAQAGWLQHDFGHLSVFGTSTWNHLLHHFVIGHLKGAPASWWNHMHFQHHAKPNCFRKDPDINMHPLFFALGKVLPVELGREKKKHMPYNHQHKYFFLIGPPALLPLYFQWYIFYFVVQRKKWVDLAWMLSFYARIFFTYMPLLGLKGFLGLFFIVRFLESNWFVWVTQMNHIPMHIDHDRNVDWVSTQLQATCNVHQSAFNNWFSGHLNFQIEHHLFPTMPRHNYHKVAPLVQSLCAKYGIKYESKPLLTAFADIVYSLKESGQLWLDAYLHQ
ASSAY DETAILS: In vivo FADS1 activity measurement using the liver (13C5-DGLA to 13C5-AA conversion)
MEASUREMENT SETUP: DIO mice, single oral dose 30 mg/kg, 24 hours after dosing
MEASURED PROPERTY: Liver Avg % Conversion (%)
Unit % implied. Number only.

Entry O=c1c(-c2ccc(OCC(F)(F)F)cc2)c(C(F)(F)F)nc2cc(CO)ccn12 [Compound D] , Liver Avg % Conversion reported as 34.5

----------
MEASUREMENT TARGET: FADS1 (Mus musculus)
Construct: Liver from ^13C5-DGLA dosed DIO mice was collected for pharmacodynamic (PD) analysis; from tissue; host or cells: living DIO C57Bl/6 mice; 13C5-DGLA to 13C5-AA conversion read in liver (A4) or blood plasma (A5)
ASSAY DETAILS: In vivo FADS1 activity measurement using blood plasma (13C5-DGLA to 13C5-AA conversion)
MEASUREMENT SETUP: blood plasma, unbound plasma concentration; read-out: Free (unbound) in vivo IC50
MEASURED PROPERTY: pIC50
Please treat pIC50 as minus the base-10 logarithm of the molar concentration.

Entry "O=c1c(-c2cnn(CC(F)(F)C(F)(F)F)c2)c(C(F)(F)F)nc2cc(OCF)ccn12" , pIC50 reported as 8.25

----------
MEASUREMENT TARGET: FADS1 (Mus musculus)
Construct: Liver from ^13C5-DGLA dosed DIO mice was collected for pharmacodynamic (PD) analysis; from tissue; host or cells: living DIO C57Bl/6 mice; 13C5-DGLA to 13C5-AA conversion read in liver (A4) or blood plasma (A5)
ASSAY DETAILS: In vivo FADS1 activity measurement using the liver (13C5-DGLA to 13C5-AA conversion)
MEASUREMENT SETUP: mouse; DIO mice, single oral dose 30 mg/kg, 24 hours after dosing; read-out: Liver Avg % Inhibition
MEASURED PROPERTY: inhibition at 30 mg/kg (%)
Unit % implied. Number only.

>  <MOLECULE>
COc1ccn2c(=O)c(-c3ccc(O[C@H](C)C#N)cc3)c(C(F)(F)F)nc2n1 [Compound E]

>  <RESULT VALUE>
5.8

$$$$

Entry COc1ccn2c(=O)c(-c3cnn(CC(F)(F)C(F)(F)F)c3)c(C(F)(F)F)nc2n1 [Compound B] , inhibition at 30 mg/kg reported as 98.2

Entry O=c1c(-c2ccc(OCC(F)(F)F)cc2)c(C(F)(F)F)nc2cc(CO)ccn12 [Compound D] , inhibition at 30 mg/kg reported as 58.7

Entry N#Cc1ccn2c(=O)c(-c3cnn(CC(F)(F)C(F)(F)F)c3)c(C(F)(F)F)nc2c1 [Compound C] , inhibition at 30 mg/kg reported as 98.2

----------
MEASUREMENT TARGET: human FADS1 (Homo sapiens, UniProt O60427)
Sequence (O60427 whole entry): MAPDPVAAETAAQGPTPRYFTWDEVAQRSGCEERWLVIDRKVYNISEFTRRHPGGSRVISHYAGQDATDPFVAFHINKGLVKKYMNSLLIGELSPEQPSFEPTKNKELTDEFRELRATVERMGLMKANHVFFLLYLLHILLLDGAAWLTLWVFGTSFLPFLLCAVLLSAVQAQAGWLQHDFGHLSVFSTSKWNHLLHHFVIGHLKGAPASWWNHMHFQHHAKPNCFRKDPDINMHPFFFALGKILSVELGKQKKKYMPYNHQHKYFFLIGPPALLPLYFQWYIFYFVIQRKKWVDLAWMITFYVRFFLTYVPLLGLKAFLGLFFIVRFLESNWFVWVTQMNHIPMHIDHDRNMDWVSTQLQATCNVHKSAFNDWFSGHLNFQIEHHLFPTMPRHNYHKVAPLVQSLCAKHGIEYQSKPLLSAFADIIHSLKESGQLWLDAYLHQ
ASSAY DETAILS: In vitro FADS1 activity assay (HEK 293 cells with FADS1 BacMam, 13C5-DGLA substrate)
MEASUREMENT SETUP: in vitro; read-out: half-maximal inhibitory concentration (IC50) against human FADS1
MEASURED PROPERTY: pIC50
Please treat pIC50 as minus the base-10 logarithm of the molar concentration.

Entry COc1ccn2c(=O)c(-c3cnn(CC(F)(F)C(F)(F)F)c3)c(C(F)(F)F)nc2c1 [Compound A] , pIC50 reported as 8.52
